# System: NCI-H226 lung
# ASSAY METHOD TEXT: NCI-60 one-dose screen, 48 h (100 = growth as untreated, 0 = no growth, -100 = all killed)
# TEST CONTEXT: 10 µM unless noted
This is part of a sample that, as a whole, favours compounds with a hit. Of some 83,000 tested, about 20% had one in any assay.
Param label: returns YES when growth < 90%, returns NO otherwise, including exact equality.

Below, 5 compounds whose answers are already recorded.
COMPOUND | GROUP
COC(=O)CC[C@@H]1O[C@@H](c2cccc(C(F)(F)F)c2)[C@@H](O)[C@H]1O | NO
COc1ccc2c(c1)CC[C@H](O)/C2=C/c1cc(OC)c(OC)c(OC)c1 | YES
CN(C)CC1CCC(CN(C)C)C1=O (centres undefined) | NO
COc1ccc(OC)c(-c2nc(SCC(=O)c3ccc(C#N)cc3)[nH]c(=O)c2C#N)c1 | NO
Cn1c(I)c(C#CCO[Si](C)(C)C(C)(C)C)c(=O)[nH]c1=O | NO

input: Given N#CC1=C(N)Oc2c(sc3c(Br)cccc23)C1c1ccc(Cl)cc1 (centres undefined) , is recorded growth strictly lower than 90%?
output: YES

input: Given `Cc1cc(C(=O)Nc2ncc(Cc3cccc(C(F)(F)F)c3)s2)c2ccccc2n1` , is recorded growth strictly lower than 90%?
output: YES

input: Given Nc1ncnc2c1C(c1ccccc1)c1ccc3ccccc3c1O2 (centres undefined) , is recorded growth strictly lower than 90%?
output: YES

input: Given `CCN(C)S(=O)(=O)Nc1cccc(Nc2ncnc3cc(NC(=O)CCl)ccc23)c1Cl` , is recorded growth strictly lower than 90%?
output: YES

input: Given `COCCOc1cc2ncnc(N3CCN(c4cc(S(C)(=O)=O)c(C)cc4Cl)CC3)c2cc1OCCOC` , is recorded growth strictly lower than 90%?
output: YES

input: Given O=C(c1nn(-c2ccccc2)c2c1CC(NCc1ccc(F)cc1)CC2)N1CCCCC1 (centres undefined) , is recorded growth strictly lower than 90%?
output: NO

====

# System: NCI/ADR-RES ovarian
# ASSAY METHOD TEXT: NCI-60 one-dose screen, 48 h (100 = growth as untreated, 0 = no growth, -100 = all killed)
# TEST CONTEXT: 10 µM unless noted
This is part of a sample that, as a whole, favours compounds with a hit. Of some 83,000 tested, about 20% had one in any assay.
The entries below come with measured growth values attached.
The answer is to be given in %; state only the numeric part.

These recorded examples may help you get a feel for the data.
MOLECULE | growth [%]
O=C(NCc1ccc(Cl)cc1Cl)C1CCC(=O)N1c1cccs1 (centres undefined) | 83.9
COc1ccc2cc1Oc1ccc(cc1)C[C@H]1c3c(cc4c(c3Oc3cc5c(cc3OC)CCN(C)[C@@H]5C2)OCO4)CCN1C | 76.2
COc1ccc2c(c1)CC[C@H](O)/C2=C/c1cc(OC)c(OC)c(OC)c1 | 6.93

Attention now shifts to the item below.
input: Given the molecule Cc1ccc(C2=Nc3c(N)ncnc3NC(c3cccc(Nc4ccnc5cc(C(F)(F)F)ccc45)c3)C2)cc1 (centres undefined) , what is its reported growth?
output: 17.4

====

# System: SNB-75 CNS
# ASSAY METHOD TEXT: NCI-60 one-dose screen, 48 h
# TEST CONTEXT: 10 µM unless noted
The panel holds about 83,000 compounds, 20% with a hit somewhere; the sample as a whole holds those more often. Active and inactive are the calls of the source. How the source made its calls: active means growth percent below 10; inactive means the rest.
One label from this list, please: active, inactive

COMPOUND | GROUP
Clc1cc(Cl)c(Cl)c(-c2nnc(SCc3ccncc3Br)o2)c1 | inactive
COc1ccc(-c2ccc(=O)oc2-c2cc(OC)c(OC)c(OC)c2)cc1O | inactive
COc1ccc2c(c1OC)CO[C@@H]2[C@H]1c2c(cc3c(c2OC)OCO3)CCN1S(=O)(=O)c1cn(C)cn1 | inactive

input: In this assay, the call recorded for `C=CC(=O)N1CCN(c2cccc(Oc3nccc(Nc4nnc(-c5ccc(Br)cc5)s4)n3)c2)CC1` was what?
output: inactive

input: In this assay, the call recorded for `Cn1cc(-c2ccc3nc(-c4ccc(CC(=O)ONc5cc(C(C)(C)C)on5)cc4)cnc3c2)cn1` was what?
output: inactive

input: In this assay, the call recorded for `CN(C)S(=O)(=O)c1cccc(C(=O)Nc2nc(-c3ccc(F)c(F)c3)cs2)c1` was what?
output: inactive

input: In this assay, the call recorded for Cc1nc2sc(C(=O)Nc3cccc(Br)c3)c(N)c2cc1C(O)c1ccccc1 (centres undefined) was what?
output: inactive

input: In this assay, the call recorded for `CN(C)CC(C)(C)C(=O)/C=C/c1ccccc1` was what?
output: active

input: In this assay, the call recorded for O=C(OC(CO)C(=O)NC12CC3CC(CC(C3)C1)C2)c1ccc(Cl)cc1 (centres undefined) was what?
output: inactive

input: In this assay, the call recorded for `COc1ccc(/C=C/C(=O)c2cccc(OCCCCOc3cccc(C(=O)/C=C/c4ccc(OC)c(OC)c4)c3)c2)cc1OC` was what?
output: inactive

input: In this assay, the call recorded for `CSc1nnc(-c2cc3c([nH]c4ccccc43)c(-c3cccc(O)c3)n2)n1-c1ccccc1` was what?
output: active

input: In this assay, the call recorded for `CS(=O)(=O)c1ccc(-c2cnn3ccc(-c4cccc(S(=O)(=O)C5CC5)c4)nc23)cc1` was what?
output: inactive

input: In this assay, the call recorded for `COc1ccc(OC)c(/C=N/Nc2ncnc3c2c(C)nn3C)c1` was what?
output: inactive

input: In this assay, the call recorded for `N#Cc1ccc2c(c1)C(=O)c1c-2n(CCCN)c(=O)c2cc([N+](=O)[O-])ccc12` was what?
output: active

input: In this assay, the call recorded for `Fc1ccc(CNc2c3ccccc3nc3ccccc23)c(F)c1` was what?
output: inactive

input: In this assay, the call recorded for `CC1=C2[C@@H](CC1)[C@]1(C)O[C@@](C(C)C)(C[C@H]1OC(=O)[C@H](C)O)[C@H]2OC(=O)/C=C/c1ccccc1` was what?
output: inactive

Just for reference, PubChem BioAssay (NCI) is where these values come from.
